test: self-splicing fitness, log relative to wild type (ln ratio); higher = more splicing; Tetrahymena group I intron in knt gene, E. coli kanamycin selection, DiMSum; sequences stand for … in CUCUCU…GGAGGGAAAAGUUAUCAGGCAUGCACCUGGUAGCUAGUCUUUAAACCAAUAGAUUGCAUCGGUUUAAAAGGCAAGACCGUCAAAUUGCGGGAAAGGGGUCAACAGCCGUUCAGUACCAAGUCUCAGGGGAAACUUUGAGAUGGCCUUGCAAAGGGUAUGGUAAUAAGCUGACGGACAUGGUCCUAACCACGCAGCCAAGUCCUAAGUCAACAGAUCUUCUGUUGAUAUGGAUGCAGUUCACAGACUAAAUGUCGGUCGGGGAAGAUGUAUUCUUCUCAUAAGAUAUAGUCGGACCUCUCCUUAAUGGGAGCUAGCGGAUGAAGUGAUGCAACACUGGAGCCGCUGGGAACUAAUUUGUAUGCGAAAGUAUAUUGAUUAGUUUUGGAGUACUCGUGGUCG; details: 37 °C;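 also: selection with 25 µg/mL kanamycin versus none on LB agar overnight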
Answer each item with its documented self-splicing fitness (ln).

Recorded result, CGUGAGCAAUAUUACGUCGA , self-splicing fitness (ln): -3.3

Recorded result, UCUCAGCAAUAUUACGGCGG , self-splicing fitness (ln): -1.01

Recorded result, UACAAGCAAUAUUACGAAUC , self-splicing fitness (ln): -2.7

Recorded result, CAGCAGCAAUAUUACGCAAG , self-splicing fitness (ln): -0.332

Recorded result, GACUAGCAAUAUUACGCAAA , self-splicing fitness (ln): -1.88

Recorded result, UACUAGCAAUAUUACGCAUA , self-splicing fitness (ln): -0.0544

Recorded result, CAAGAGCAAUAUUACGCCGA , self-splicing fitness (ln): -1.04

Recorded result, GAUAAGCAAUAUUACGAUAG , self-splicing fitness (ln): -1.95

Recorded result, GUAAAGCAAUAUUACGCCUU , self-splicing fitness (ln): 0.238

Recorded result, CCGAAGCAAUAUUACGAGCU , self-splicing fitness (ln): -2.47

Recorded result, CGGUAGCAAUAUUACGUCAG , self-splicing fitness (ln): -1.09

Recorded result, GGAUAGCAAUAUUACGACAU , self-splicing fitness (ln): -0.0181

Recorded result, AGAAAGCAAUAUUACGGGUA , self-splicing fitness (ln): -1.01

Recorded result, GCUGAGCAAUAUUACGUACC , self-splicing fitness (ln): -0.328

Recorded result, GUCCAGCAAUAUUACGCCUC , self-splicing fitness (ln): 0.705

Recorded result, AACCAGCAAUAUUACGCUAU , self-splicing fitness (ln): -0.398

Recorded result, CGUUAGCAAUAUUACGGGUA , self-splicing fitness (ln): -2.08

Recorded result, GAUGAGCAAUAUUACGAGGG , self-splicing fitness (ln): -2.15

Recorded result, AUGUAGCAAUAUUACGGACG , self-splicing fitness (ln): -1.09

Recorded result, UAGAAGCAAUAUUACGGCUG , self-splicing fitness (ln): 0.218

Recorded result, GGGCAGCAAUAUUACGGCCG , self-splicing fitness (ln): -1.59

Recorded result, UGCCAGCAAUAUUACGGGUG , self-splicing fitness (ln): -2.98

Recorded result, UGAGAGCAAUAUUACGCAGU , self-splicing fitness (ln): -2.41

Recorded result, AGGUAGCAAUAUUACGCCCU , self-splicing fitness (ln): -2.45

Recorded result, UUUCAGCAAUAUUACGCUCG , self-splicing fitness (ln): 0.385

Recorded result, UGCCAGCAAUAUUACGCUCG , self-splicing fitness (ln): -0.622

Recorded result, CGUCAGCAAUAUUACGUGCC , self-splicing fitness (ln): 0.32

Recorded result, AAUGAGCAAUAUUACGGACU , self-splicing fitness (ln): -2.04

Recorded result, CUUUAGCAAUAUUACGAUAG , self-splicing fitness (ln): -0.782

Recorded result, GUCUAGCAAUAUUACGUCUA , self-splicing fitness (ln): -1.22

Recorded result, CAUAAGCAAUAUUACGCACC , self-splicing fitness (ln): -0.0667

Recorded result, CUUCAGCAAUAUUACGUACG , self-splicing fitness (ln): 0.542

Recorded result, GAGCAGCAAUAUUACGGCUG , self-splicing fitness (ln): -2.51

Recorded result, CAAAAGCAAUAUUACGGCUG , self-splicing fitness (ln): -0.592

Recorded result, GACGAGCAAUAUUACGUUCC , self-splicing fitness (ln): -2.65

Recorded result, CCAAAGCAAUAUUACGAACA , self-splicing fitness (ln): -3.23

Recorded result, CGCUAGCAAUAUUACGCUUA , self-splicing fitness (ln): -2.75

Recorded result, AUUUAGCAAUAUUACGAAAC , self-splicing fitness (ln): -2

Recorded result, GUUAAGCAAUAUUACGACUC , self-splicing fitness (ln): 0.214

Recorded result, GCCGAGCAAUAUUACGAAAU , self-splicing fitness (ln): -1.62

Recorded result, UCACAGCAAUAUUACGGAAU , self-splicing fitness (ln): -2.97

Recorded result, ACAUAGCAAUAUUACGUACC , self-splicing fitness (ln): 0.0877

Recorded result, CGCGAGCAAUAUUACGAUGC , self-splicing fitness (ln): -2.16

Recorded result, CUGCAGCAAUAUUACGGGAC , self-splicing fitness (ln): -0.85

Recorded result, GUCAAGCAAUAUUACGUUCG , self-splicing fitness (ln): -2.1

Recorded result, UUCAAGCAAUAUUACGCGCC , self-splicing fitness (ln): -1.38

Recorded result, UUGAAGCAAUAUUACGGACC , self-splicing fitness (ln): -0.125

Recorded result, ACACAGCAAUAUUACGUCAU , self-splicing fitness (ln): -2.33

Recorded result, UAUUAGCAAUAUUACGUAGG , self-splicing fitness (ln): -1.33

Recorded result, UGAAAGCAAUAUUACGGCAA , self-splicing fitness (ln): 0.497

Recorded result, CAGAAGCAAUAUUACGCACG , self-splicing fitness (ln): -0.261

Recorded result, AUAGAGCAAUAUUACGAAGG , self-splicing fitness (ln): -1.24

Recorded result, AGUUAGCAAUAUUACGGAUG , self-splicing fitness (ln): -0.801

Recorded result, ACACAGCAAUAUUACGCCGU , self-splicing fitness (ln): -1.13

Recorded result, CUUAAGCAAUAUUACGUCGA , self-splicing fitness (ln): -2.19

Recorded result, CGCCAGCAAUAUUACGGGUU , self-splicing fitness (ln): -2.18

Recorded result, CUCUAGCAAUAUUACGGUUU , self-splicing fitness (ln): -1.82

Recorded result, AGUGAGCAAUAUUACGACGC , self-splicing fitness (ln): -0.737

Recorded result, UUUCAGCAAUAUUACGACGG , self-splicing fitness (ln): 0.205

Recorded result, UGAUAGCAAUAUUACGGGCU , self-splicing fitness (ln): -2.11

Recorded result, UCCGAGCAAUAUUACGAGCU , self-splicing fitness (ln): -2.68

Recorded result, GGAGAGCAAUAUUACGGCUG , self-splicing fitness (ln): -0.692

Recorded result, UAAUAGCAAUAUUACGCGCG , self-splicing fitness (ln): -0.333

Recorded result, GCCUAGCAAUAUUACGCCCA , self-splicing fitness (ln): -0.792

Recorded result, UGGGAGCAAUAUUACGCGGU , self-splicing fitness (ln): -3.8

Recorded result, AGGAAGCAAUAUUACGCCUU , self-splicing fitness (ln): -0.955

Recorded result, GUCUAGCAAUAUUACGCUAG , self-splicing fitness (ln): -2.31

====

test: self-splicing fitness, log relative to wild type (ln ratio); higher = more splicing; Tetrahymena group I intron in knt gene, E. coli kanamycin selection, DiMSum; sequences stand for … in CUCUCU…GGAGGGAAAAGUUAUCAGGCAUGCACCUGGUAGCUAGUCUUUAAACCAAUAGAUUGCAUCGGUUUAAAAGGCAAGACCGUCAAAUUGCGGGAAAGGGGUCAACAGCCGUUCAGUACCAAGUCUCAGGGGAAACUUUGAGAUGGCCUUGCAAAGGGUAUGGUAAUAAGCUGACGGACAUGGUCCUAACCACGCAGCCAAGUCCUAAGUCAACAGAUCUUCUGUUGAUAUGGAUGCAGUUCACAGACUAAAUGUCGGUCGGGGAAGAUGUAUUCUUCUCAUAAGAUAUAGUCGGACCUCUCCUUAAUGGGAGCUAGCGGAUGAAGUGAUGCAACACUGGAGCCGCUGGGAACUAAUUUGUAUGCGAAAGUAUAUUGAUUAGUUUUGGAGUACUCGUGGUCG; settings: 37 °C
# if value of self-splicing fitness (ln) reaches -2, tag t; if it stays below, tag f

Check this sequence for self-splicing fitness (ln) at or above -2: UUAGAGCAAUAUUACGCCGG t

Check this sequence for self-splicing fitness (ln) at or above -2: CCGAAGCAAUAUUACGACGU t

Check this sequence for self-splicing fitness (ln) at or above -2: CGGAAGCAAUAUUACGGGUU f

Check this sequence for self-splicing fitness (ln) at or above -2: UCCCAGCAAUAUUACGUUAC f

Check this sequence for self-splicing fitness (ln) at or above -2: AUGUAGCAAUAUUACGGCAG t

Check this sequence for self-splicing fitness (ln) at or above -2: GCAUAGCAAUAUUACGCUAC f

Check this sequence for self-splicing fitness (ln) at or above -2: UCGGAGCAAUAUUACGCAGG f

Check this sequence for self-splicing fitness (ln) at or above -2: ACUUAGCAAUAUUACGGUUU t
